Target: Gelatinase E (GelE) (Enterococcus faecalis (strain ATCC 700802 / V583))
Sequence (Q833V7 193-510 limits assumed): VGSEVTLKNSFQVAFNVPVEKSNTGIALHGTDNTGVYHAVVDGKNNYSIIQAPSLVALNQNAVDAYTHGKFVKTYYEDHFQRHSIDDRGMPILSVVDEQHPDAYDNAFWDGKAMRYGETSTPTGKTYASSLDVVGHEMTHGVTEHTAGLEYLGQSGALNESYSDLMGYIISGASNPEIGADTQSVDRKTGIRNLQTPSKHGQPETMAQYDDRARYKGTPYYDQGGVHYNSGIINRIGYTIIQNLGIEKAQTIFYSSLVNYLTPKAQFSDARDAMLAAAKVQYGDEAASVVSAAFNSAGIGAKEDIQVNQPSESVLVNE
Experiment: Gelatinase E activity assay (FRET peptide substrate)
Format: biochemical
Details: Table 11
Flag rule - IC50 less than 200 nM flags true (1); the remaining entries get false (0).

{"columns": ["molecule", "category"],
 "data": [
  ["COc1ccc(CNC(=O)COc2ccc(S(=O)(=O)N(CC(=O)NO)CC(C)C)cc2)cc1", "true (1)"],
  ["Cc1cccc(CNC(=O)COc2ccc(S(=O)(=O)N(CC(=O)NO)CC(C)C)cc2)c1", "false (0)"],
  ["CC(C)CN(CC(=O)NO)S(=O)(=O)c1ccc(OCCCF)cc1", "false (0)"],
  ["CC(C)CN(CC(=O)NO)S(=O)(=O)c1ccc(OCC(=O)NCc2ccccn2)cc1", "true (1)"],
  ["CC(C)CN(CC(=O)NO)S(=O)(=O)c1ccc(OCC(=O)NCc2cccc(Cl)c2)cc1", "true (1)"],
  ["Cc1ccc(CNC(=O)COc2ccc(S(=O)(=O)N(CC(=O)NO)CC(C)C)cc2)cc1", "true (1)"],
  ["C=CCOc1ccc(S(=O)(=O)N(CC(=O)NO)CC(C)C)cc1", "false (0)"],
  ["COc1ccc(S(=O)(=O)N(CC(=O)O)Cc2cccnc2)cc1", "false (0)"],
  ["CCOc1ccc(S(=O)(=O)N(CC(=O)NO)CC(C)C)cc1", "false (0)"],
  ["CC(C)CN(CC(=O)NO)S(=O)(=O)c1ccc(OCC(=O)NC(C)c2ccccc2)cc1 (stereo not drawn)", "false (0)"],
  ["CCCOc1ccc(S(=O)(=O)N(CC(=O)NO)CC(C)C)cc1", "false (0)"],
  ["CC(C)CN(CC(=O)NO)S(=O)(=O)c1ccc(OCC(F)F)cc1", "true (1)"],
  ["CC(C)CN(CC(=O)NO)S(=O)(=O)c1ccc(OCC(=O)NCc2ccc(Cl)cc2)cc1", "true (1)"],
  ["CC(C)CN(CC(=O)NO)S(=O)(=O)c1ccc(OCC(=O)NCc2cccc(F)c2)cc1", "true (1)"],
  ["CC(C)CN(CC(=O)NO)S(=O)(=O)c1ccc(OCC(=O)NCc2ccccc2)cc1", "true (1)"],
  ["COc1ccc(-n2ccc(CCC(=O)NO)n2)cc1", "false (0)"],
  ["COCCOc1ccc(S(=O)(=O)N(CC(=O)NO)CC(C)C)cc1", "false (0)"],
  ["CC(C)CN(CC(=O)NO)S(=O)(=O)c1ccc(OCc2ccc(F)cc2)cc1", "false (0)"],
  ["CC(C)CN(CC(=O)NO)S(=O)(=O)c1ccc(OCC(=O)NCc2ccc(F)cc2)cc1", "false (0)"],
  ["CC(C)CN(CC(=O)NO)S(=O)(=O)c1ccc(OCCF)cc1", "false (0)"],
  ["CC(C)CN(CC(=O)NO)S(=O)(=O)c1ccc(OCC(=O)NCc2cc(F)cc(F)c2)cc1", "false (0)"],
  ["COCCN(CC(=O)NO)S(=O)(=O)c1ccc(OC)cc1", "false (0)"],
  ["COc1ccc(S(=O)(=O)N(CC(=O)NO)CC(F)F)cc1", "false (0)"],
  ["CC(C)CN(CC(=O)NO)S(=O)(=O)c1ccc(Oc2ccccc2)cc1", "false (0)"],
  ["Cc1ccccc1CNC(=O)COc1ccc(S(=O)(=O)N(CC(=O)NO)CC(C)C)cc1", "false (0)"]
]}
